meta.source: PubChem BioAssay AID2060498

System: 171881-019-R-J1-PDC tumor spheroids, viability;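 note: spheroids exposed to compounds for 7 days; 100% = DMSO vehicle control viability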
assayName: Anticancer human tumor 171881-019-R-J1-PDC patient-derived invasive breast carcinoma cell line growth inhibition [GQUAD]
setupConditions: second compound 0.0316 µM; first compound 0.316 µM; active compounds read low; spheroids with HUVEC and MSC

- compound: "CCc1c2c(nc3ccc(O)cc13)-c1cc3c(c(=O)n1C2)COC(=O)[C@]3(O)CC + Cc1[nH]c2ccc(F)cc2c1-c1nc2c3cccnc3c3ncccc3c2[nH]1"
  experimentalSystem: "171881-019-R-J1-PDC tumor spheroids, viability"
  viability, T/C: "23.3%"
- compound: "CC(C)n1c(=O)n(C)c2cnc3cc(F)c(-c4ccc(OCCCN5CCCCC5)nc4)cc3c21 + Cc1cnc(CNC(=O)c2c(=O)c3ccc(N4CCCN(C)CC4)nc3n3c2sc2ccccc23)cn1"
  experimentalSystem: "171881-019-R-J1-PDC tumor spheroids, viability"
  viability, T/C: "59.6%"
- compound: "C#Cc1c(F)ccc2cc(O)cc(-c3ncc4c(N5CC6CCC(C5)N6)nc(OCC56CCCN5CC(F)C6)nc4c3F)c12 (configuration not stated) + Cc1[nH]c2ccc(F)cc2c1-c1nc2c3cccnc3c3ncccc3c2[nH]1"
  experimentalSystem: "171881-019-R-J1-PDC tumor spheroids, viability"
  viability, T/C: "60.6%"
- compound: "COc1cc(C2c3cc4c(cc3C(OC3OC5COC(C)OC5C(O)C3O)C3COC(=O)C23)OCO4)cc(OC)c1O (configuration not stated) + Cc1[nH]c2ccc(F)cc2c1-c1nc2c3cccnc3c3ncccc3c2[nH]1"
  experimentalSystem: "171881-019-R-J1-PDC tumor spheroids, viability"
  viability, T/C: "74.5%"
- compound: "O=c1[nH]cc(F)c(=O)[nH]1 + CN(C)c1ccc(Nc2c3ccc(NC(=O)CCN4CCCC4)cc3nc3cc(NC(=O)CCN4CCCC4)ccc23)cc1"
  experimentalSystem: "171881-019-R-J1-PDC tumor spheroids, viability"
  viability, T/C: "75.2%"
- compound: "CC1COCCN1c1cc(C2(O)CC3CCC(C2)O3)c2cnn(-c3ccn[nH]3)c2n1 (configuration not stated) + CN(C)c1ccc(Nc2c3ccc(NC(=O)CCN4CCCC4)cc3nc3cc(NC(=O)CCN4CCCC4)ccc23)cc1"
  experimentalSystem: "171881-019-R-J1-PDC tumor spheroids, viability"
  viability, T/C: "5.6%"
- compound: "CC1COCCN1c1cc(C2(O)CC3CCC(C2)O3)c2cnn(-c3ccn[nH]3)c2n1 (configuration not stated) + Cc1cnc(CNC(=O)c2c(=O)c3ccc(N4CCCN(C)CC4)nc3n3c2sc2ccccc23)cn1"
  experimentalSystem: "171881-019-R-J1-PDC tumor spheroids, viability"
  viability, T/C: "9.78%"
